The values you see were collected from ChEMBL document CHEMBL4513216.

The following compounds are listed with their measured cytotoxicity at 10 µM values.
# assayProtocol: Toxicity liver stage against HepG2, at 10uM
# Type: cell-based
# Design: test concentration 10 uM, cell line HepG2-A16-CD81EGFP
# assaySetup: human, HepG2-A16-CD81EGFP cells; read-out: INHIBITION
API: value field is a number in %; no unit string.

Field: example entries. Status: answers known.
INSERT INTO assay_data (compound, unitstring, observedresult) VALUES
  ('COc1cccc(-c2nc(CNC(C)Cn3cccn3)cs2)c1 (stereo not drawn)', '%', -6.31),
  ('CN1CCN(c2ncc3c(=O)n(-c4cccc(F)c4)c(=O)[nH]c3n2)CC1', '%', -8.85),
  ('CCOCCSc1nnc(-c2cn(CC)nc2OCC)n1C', '%', -3.81),
  ('Cc1cccc2[nH]cc(CC(=O)N3CCC(Nc4cccnn4)CC3)c12', '%', -8.45),
  ('c1ccc(NC[C@@H]2CCC[C@@H]3CN(Cc4nccs4)C[C@@H]32)nc1', '%', -108),
  ('CCN(CC)C(=O)Cn1ccc2cc(NC(=O)C3CCCCC3)ccc21', '%', -5.04);

In: Quick check: cytotoxicity at 10 µM of COc1ccccc1OCCCN1CCNC1=O ?
Out: 1.5

In: Quick check: cytotoxicity at 10 µM of O=c1c2ccc(Cl)cc2ncn1CCCN1CCCCC1CO (stereo not drawn) ?
Out: -2.4
